The measured values listed here are drawn from patent US10047098B2.

# subject of test: Recombinant human soluble BACE1 catalytic domain (Homo sapiens (Human), UniProt P56817)
# Sequence (P56817 75-416): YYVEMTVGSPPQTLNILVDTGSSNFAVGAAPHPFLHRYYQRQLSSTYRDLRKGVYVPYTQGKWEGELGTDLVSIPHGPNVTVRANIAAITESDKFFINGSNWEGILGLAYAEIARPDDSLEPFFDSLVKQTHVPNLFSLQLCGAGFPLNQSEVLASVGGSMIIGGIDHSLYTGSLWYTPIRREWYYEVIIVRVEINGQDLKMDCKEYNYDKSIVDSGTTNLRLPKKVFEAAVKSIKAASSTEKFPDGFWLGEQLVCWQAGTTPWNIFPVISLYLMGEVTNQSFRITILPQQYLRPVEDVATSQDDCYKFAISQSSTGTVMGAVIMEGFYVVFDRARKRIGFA
# assay method text: BACE1 HTRF FRET Assay
# test conditions: Ki calculated from IC50 using the Cheng-Prusoff equation; QSY7-APPswe-Eu substrate, pH 5.0; read-out: BACE-1 Ki
pKi: −log10 of the molar value.
quantity kind: pKi

compound: C[C@H]1C[C@H]2C(=O)N(C)C(=N)N[C@@]2(c2cc(Oc3ncccc3Cl)ccc2F)CO1
subject of test: Recombinant human soluble BACE1 catalytic domain (Homo sapiens (Human), UniProt P56817)
pKi: 7.42

(P) C[C@H]1C[C@H]2C(=O)N(C)C(=N)N[C@@]2(c2cc(Oc3cc(C#N)ccn3)c(F)cc2F)CO1
(Q) C[C@H]1C[C@H]2C(=O)N(C)C(=N)N[C@@]2(c2ccc(F)cc2F)CO1
(R) Cc1cccnc1Oc1ccc(F)c([C@]23CO[C@@H](C)C[C@H]2C(=O)N(C)C(=N)N3)c1
(S) CN1C(=N)N[C@@]2(c3cc(Oc4ncc(F)cc4F)ccc3F)CO[C@@H](C3CC3)C[C@H]2C1=O
// query Hey, quick one: sort these by pKi, low to high? # respond with the labels, arranged in the requested order
// result R, Q, S, P
(R: 6.53, Q: 6.96, S: 7.96, P: 8.70)

(P) CN1C(=N)N[C@@]2(c3cc(C#N)ccc3F)CO[C@@H](C3CC3)C[C@H]2C1=O
(Q) C[C@H]1C[C@H]2C(=O)N(C)C(=N)N[C@@]2(c2cc(=O)n(CC3CC3)cc2F)CO1
// query Which of the two gives a bigger number for pKi: P or Q ? Let me know the label of the one you choose.
// result P
(P: 6.69, Q: 5.38)

(P) CN1C(=N)N[C@@]2(c3cc(OCC4CC(F)(F)C4)ccc3F)CO[C@@H](C3CC3)C[C@H]2C1=O
(Q) CN1C(=N)N[C@@]2(c3ccc(F)cc3F)CO[C@@H](C(F)F)C[C@H]2C1=O
(R) COC[C@H]1C[C@H]2C(=O)N(C)C(=N)N[C@@]2(c2ccc(F)cc2F)CO1
(S) Cc1cnc(Oc2ccc(F)c([C@]34CO[C@@H](C5CC5)C[C@H]3C(=O)N(C)C(=N)N4)c2)c(F)c1
(T) CN1C(=N)N[C@@]2(c3cc(OCC45CC(C4)C5)ccc3F)CO[C@@H](C3CC3)C[C@H]2C1=O
// query Thanks in advance: please rank these 5 entries by pKi, highest to lowest. # respond with the labels, arranged in the requested order
// result T, P, S, Q, R
(T: 7.68, P: 7.26, S: 6.92, Q: 6.51, R: 6.20)

---

# subject of test: purified human autoBACE-2 (Homo sapiens (Human))
# Sequence (Q9Y5Z0 63-473 limits assumed): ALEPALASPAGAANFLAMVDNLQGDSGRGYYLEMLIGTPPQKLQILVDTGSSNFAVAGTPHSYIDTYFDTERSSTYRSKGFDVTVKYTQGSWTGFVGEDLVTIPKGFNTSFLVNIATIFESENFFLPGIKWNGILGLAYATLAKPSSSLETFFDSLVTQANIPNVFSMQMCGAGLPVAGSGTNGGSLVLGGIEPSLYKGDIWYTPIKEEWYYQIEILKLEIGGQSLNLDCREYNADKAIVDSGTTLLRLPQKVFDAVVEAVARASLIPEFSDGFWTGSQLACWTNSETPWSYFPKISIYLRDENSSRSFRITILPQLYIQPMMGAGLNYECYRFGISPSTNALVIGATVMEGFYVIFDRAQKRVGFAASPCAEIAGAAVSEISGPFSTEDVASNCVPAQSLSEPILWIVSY
pKi: −log10 of the molar value.
quantity kind: pKi

Study these solved cases before continuing.
compound: CN1C(=N)N[C@@]2(c3cc(O)ccc3F)CO[C@@H](c3ccc(F)cc3)C[C@H]2C1=O [Example 84]
pKi: 7.76
//
compound: C[C@H]1C[C@H]2C(=O)N(C)C(=N)N[C@@]2(c2cc(OCC34CC(C#N)(C3)C4)ccc2F)CO1 [Example 26]
pKi: 7.01
//
compound: CN1C(=N)N[C@@]2(c3cc(Oc4ccnnc4)ccc3F)CO[C@@H](C3CC3)C[C@H]2C1=O [Example 41]
pKi: 7.19

(A) C[C@H]1C[C@H]2C(=O)N(C)C(=N)N[C@@]2(c2cc(OCC3CC3)ncc2F)CO1 [Example 92]
(B) CN1C(=N)N[C@@]2(c3cc(Oc4cnccn4)ccc3F)CO[C@@H](C3CC3)C[C@H]2C1=O [Example 39]
(C) Cc1nccc(Oc2ccc(F)c([C@]34CO[C@@H](C5CC5)C[C@H]3C(=O)N(C)C(=N)N4)c2)n1 [Example 22]
(D) CN1C(=N)N[C@@]2(c3cc(OCC4CC4(F)F)ccc3F)CO[C@@H](C3CC3)C[C@H]2C1=O (stereo partly shown) [Example 52]
// query Thanks in advance: please rank these 4 entries by pKi, highest to lowest. # respond with the labels, arranged in the requested order
// result A, D, B, C
(A: 8.66, D: 7.74, B: 7.14, C: 6.74)
